# tested on: Kinesin-like protein KIF11 (Homo sapiens, UniProt P52732)
# Sequence (P52732 whole entry): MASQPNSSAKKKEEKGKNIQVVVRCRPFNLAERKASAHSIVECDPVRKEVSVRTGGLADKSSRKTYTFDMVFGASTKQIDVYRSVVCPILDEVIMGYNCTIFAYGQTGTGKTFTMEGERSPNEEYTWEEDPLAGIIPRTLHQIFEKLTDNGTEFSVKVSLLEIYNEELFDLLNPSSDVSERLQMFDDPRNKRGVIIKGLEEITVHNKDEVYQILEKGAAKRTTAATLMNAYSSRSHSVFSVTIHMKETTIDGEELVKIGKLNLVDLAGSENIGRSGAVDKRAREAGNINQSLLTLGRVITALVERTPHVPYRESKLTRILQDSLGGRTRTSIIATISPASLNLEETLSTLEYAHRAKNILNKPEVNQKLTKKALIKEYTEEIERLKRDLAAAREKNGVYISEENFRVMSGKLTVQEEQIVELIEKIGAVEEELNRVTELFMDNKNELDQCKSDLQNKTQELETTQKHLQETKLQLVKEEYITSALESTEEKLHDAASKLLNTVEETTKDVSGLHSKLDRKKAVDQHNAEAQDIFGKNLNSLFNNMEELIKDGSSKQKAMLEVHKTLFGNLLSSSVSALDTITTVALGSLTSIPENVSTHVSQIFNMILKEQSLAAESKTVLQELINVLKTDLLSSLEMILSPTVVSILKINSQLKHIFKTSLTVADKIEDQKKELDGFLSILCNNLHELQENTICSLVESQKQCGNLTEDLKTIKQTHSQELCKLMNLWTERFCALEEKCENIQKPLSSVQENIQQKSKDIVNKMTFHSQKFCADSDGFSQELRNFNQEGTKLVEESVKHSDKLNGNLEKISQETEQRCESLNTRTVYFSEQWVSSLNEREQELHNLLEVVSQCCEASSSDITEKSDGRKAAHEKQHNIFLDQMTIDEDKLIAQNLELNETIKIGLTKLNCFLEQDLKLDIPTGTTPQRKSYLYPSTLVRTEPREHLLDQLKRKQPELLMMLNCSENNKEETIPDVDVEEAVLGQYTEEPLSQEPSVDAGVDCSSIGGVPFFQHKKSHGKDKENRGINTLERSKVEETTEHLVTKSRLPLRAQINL
# protocol summary: Inhibition of basal ATPase activity of N-terminal His6-tagged human Eg5 motor domain (1 to 368 residues) expressed in Escherichia coli BL21 (DE3) by pyruvate kinase-lactate dehydrogenase coupled assay

compound	IC50
CC(=O)NC1=NN(C(C)=O)C(C)(c2ccncc2)S1 (stereo unspecified)	59900 nM
CC(=O)NC1=NN(C(C)=O)C(C)(c2cccs2)S1 (stereo unspecified)	1700 nM
CC(=O)NC1=NN(C(C)=O)C(C)(c2ccccc2)S1 (stereo unspecified)	740 nM
CC(=O)NC1=NN(C(C)=O)C(C)(c2cnccn2)S1 (stereo unspecified)	46900 nM
CC(=O)NC1=NN(C(C)=O)C(C)(c2ccc(Cl)s2)S1 (stereo unspecified)	950 nM
CC(=O)NC1=NN(C(C)=O)C(C)(c2cc(F)ccc2F)S1 (stereo unspecified)	840 nM

====

Listing of entries alongside the reported pIC50.
# tested on: Kinesin-like protein KIF11 (Homo sapiens, UniProt P52732)
# protocol summary: Inhibition of N-terminal His6-tagged microtubule-stimulated ATPase activity of human Eg5 motor domain (1 to 368 residues) expressed in Escherichia coli BL21 (DE3) by pyruvate kinase-lactate dehydrogenase coupled assay
pIC50: −log10 of the molar value.
attribute measured: pIC50

compound	attribute measured	result number
CC(=O)NC1=NN(C(C)=O)C(C)(c2ccccc2)S1 (configuration not stated)	pIC50	6.13
CC(=O)NC1=NN(C(C)=O)[C@](C)(c2ccccc2)S1	pIC50	6.31

====

# tested on: Kinesin-like protein KIF11 (Homo sapiens)
# Sequence (P52732 whole entry): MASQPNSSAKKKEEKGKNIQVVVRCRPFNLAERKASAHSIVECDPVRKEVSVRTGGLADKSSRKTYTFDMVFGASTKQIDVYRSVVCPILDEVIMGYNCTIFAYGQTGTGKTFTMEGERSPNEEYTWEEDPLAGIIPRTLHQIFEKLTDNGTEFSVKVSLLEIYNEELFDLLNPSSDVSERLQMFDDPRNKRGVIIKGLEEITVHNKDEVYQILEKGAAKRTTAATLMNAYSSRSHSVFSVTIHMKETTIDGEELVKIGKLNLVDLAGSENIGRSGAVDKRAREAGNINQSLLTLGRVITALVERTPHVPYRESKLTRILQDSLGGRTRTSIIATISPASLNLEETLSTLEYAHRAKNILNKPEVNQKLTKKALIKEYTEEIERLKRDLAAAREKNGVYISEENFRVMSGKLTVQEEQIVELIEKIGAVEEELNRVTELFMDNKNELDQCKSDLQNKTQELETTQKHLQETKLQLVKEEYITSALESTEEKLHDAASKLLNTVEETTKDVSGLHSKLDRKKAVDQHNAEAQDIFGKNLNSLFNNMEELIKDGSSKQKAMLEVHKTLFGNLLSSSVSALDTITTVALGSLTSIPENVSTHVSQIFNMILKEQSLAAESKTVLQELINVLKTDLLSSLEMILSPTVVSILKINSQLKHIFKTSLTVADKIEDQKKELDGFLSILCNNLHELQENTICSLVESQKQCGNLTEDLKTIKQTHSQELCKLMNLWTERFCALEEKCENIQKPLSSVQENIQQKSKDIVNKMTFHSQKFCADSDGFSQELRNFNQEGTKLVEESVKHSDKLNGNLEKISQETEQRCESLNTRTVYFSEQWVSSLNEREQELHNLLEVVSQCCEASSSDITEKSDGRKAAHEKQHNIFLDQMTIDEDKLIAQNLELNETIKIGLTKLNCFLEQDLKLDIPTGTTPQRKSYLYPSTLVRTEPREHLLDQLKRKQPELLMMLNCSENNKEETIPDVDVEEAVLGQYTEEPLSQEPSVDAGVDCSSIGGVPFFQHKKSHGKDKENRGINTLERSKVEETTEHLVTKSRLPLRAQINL
# protocol summary: Inhibition of microtubule-stimulated human Eg5 ATPase activity

compound	IC50 (nM)
CCNCCS(=O)(=O)NC[C@@]1(c2ccccc2)SC(NC(=O)C(C)(C)C)=NN1C(=O)C(C)(C)C [LITRONESIB]	26

====

# tested on: Kinesin-like protein KIF11 (Homo sapiens, UniProt P52732)
# protocol summary: Inhibition of basal ATPase activity of N-terminal His6-tagged human Eg5 motor domain (1 to 368 residues) expressed in Escherichia coli BL21 (DE3) by pyruvate kinase-lactate dehydrogenase coupled assay
Listing of entries alongside the reported IC50.
attribute measured: IC50 (µM)

compound	tested on	attribute measured	result number
CC(=O)NC1=NN(C(C)=O)C(C)(c2ccccn2)S1 (stereo not drawn)	Kinesin-like protein KIF11 (Homo sapiens, UniProt P52732)	IC50	37.2
CC(=O)NC1=NN(C(C)=O)[C@](C)(c2ccccc2)S1	Kinesin-like protein KIF11 (Homo sapiens, UniProt P52732)	IC50	0.58
CC(=O)NC1=NN(C(C)=O)C(C)(c2ccc(OC(C)=O)cc2)S1 (stereo not drawn)	Kinesin-like protein KIF11 (Homo sapiens, UniProt P52732)	IC50	5.1
CC(=O)NC1=NN(C(C)=O)C(C)(C2CCCCC2)S1 (stereo not drawn)	Kinesin-like protein KIF11 (Homo sapiens, UniProt P52732)	IC50	7.5
CC(=O)NC1=NN(C(C)=O)C(C)(c2ccco2)S1 (stereo not drawn)	Kinesin-like protein KIF11 (Homo sapiens, UniProt P52732)	IC50	4.3
CC(=O)NC1=NN(C(C)=O)C(c2ccccc2)S1 (stereo not drawn)	Kinesin-like protein KIF11 (Homo sapiens, UniProt P52732)	IC50	20
CC(=O)NC1=NN(C(C)=O)C(C)(c2ccsc2)S1 (stereo not drawn)	Kinesin-like protein KIF11 (Homo sapiens, UniProt P52732)	IC50	2.2
CC(=O)NC1=NN(C(C)=O)C(C)(c2ccc3ccccc3c2)S1 (stereo not drawn)	Kinesin-like protein KIF11 (Homo sapiens, UniProt P52732)	IC50	15.6
CCC1(c2ccccc2)SC(NC(C)=O)=NN1C(C)=O (stereo not drawn)	Kinesin-like protein KIF11 (Homo sapiens, UniProt P52732)	IC50	1.46
CC(=O)NC1=NN(C(C)=O)C(c2cc(F)ccc2F)S1 (stereo not drawn)	Kinesin-like protein KIF11 (Homo sapiens, UniProt P52732)	IC50	41.1
CC(=O)NC1=NN(C(C)=O)C(c2cccc3ccccc23)S1 (stereo not drawn)	Kinesin-like protein KIF11 (Homo sapiens, UniProt P52732)	IC50	53.9
CC(=O)NC1=NN(C(C)=O)C(C)(c2cccnc2)S1 (stereo not drawn)	Kinesin-like protein KIF11 (Homo sapiens, UniProt P52732)	IC50	8.5
CC(=O)NC1=NN(C(C)=O)C(C)(c2cccc3ccccc23)S1 (stereo not drawn)	Kinesin-like protein KIF11 (Homo sapiens, UniProt P52732)	IC50	1.9

====

# tested on: Kinesin-like protein KIF11 (Homo sapiens, UniProt P52732)
pKd: −log10 of the molar value.

smiles structure	tested on	pKd
CC(=O)NC1=NN(C(C)=O)[C@](C)(c2ccccc2)S1	Kinesin-like protein KIF11 (Homo sapiens, UniProt P52732)	6.66
